protocol-description: Oral bioavailability in mouse at 10 mg/kg
Assay type: ADME, organism-based
condition: in vivo
experimental-readout: bioavailability
Returns: string containing the number followed by the unit.

[in] Returns the measured bioavailability for the input compound. Input: "Cc1cccc2c1n(C)c(=N)n2CC(=O)c1ccc(Cl)cc1"
[out] 57%

###

Quick list: IC50 per entry.
subject-of-test: C-X-C chemokine receptor type 3 (Homo sapiens, UniProt P49682)
Sequence (P49682 whole entry): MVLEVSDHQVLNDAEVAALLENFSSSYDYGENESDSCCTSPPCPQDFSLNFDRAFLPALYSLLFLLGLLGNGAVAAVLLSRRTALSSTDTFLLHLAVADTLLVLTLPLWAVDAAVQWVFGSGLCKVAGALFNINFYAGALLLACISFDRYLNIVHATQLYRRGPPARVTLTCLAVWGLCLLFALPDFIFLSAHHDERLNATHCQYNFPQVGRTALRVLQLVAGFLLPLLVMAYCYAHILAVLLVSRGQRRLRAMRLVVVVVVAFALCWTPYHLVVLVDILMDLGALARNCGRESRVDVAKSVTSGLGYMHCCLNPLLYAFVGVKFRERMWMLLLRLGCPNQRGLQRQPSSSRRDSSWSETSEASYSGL
protocol-description: Displacement of [125I]-CXCL10 from CXCR3 in human PBMC cells
Format: cell-based
Number only, in nM; omit the unit.

# annotated cases, reported IC50 shown
{"compound": "CC[C@H](C)C[C@H](C)C[C@H](C)[C@@H](O[C@@H]1O[C@H](COC(C)=O)[C@@H](O)[C@@H](O)[C@@H]1O)[C@@H](C)/C=C(\\C)[C@@H](O)[C@@H](C)/C=C(\\C)[C@@H](O)[C@@H](C)/C=C(\\C)C(=O)OC[C@@H](O)[C@H](O)[C@H](O)CO", "experimental-readout": "IC50", "u": "nM", "numeric-result": 15800}
{"compound": "CC(=O)c1nc2ccccc2n1CC(=O)c1ccc([N+](=O)[O-])cc1", "experimental-readout": "IC50", "u": "nM", "numeric-result": 3160}
{"compound": "C[C@@H]1CC[C@@]2(OC1)OC1CC3C4CC=C5[C@@H](O[C@@H]6O[C@H](CO)[C@@H](O[C@H]7O[C@H](C)[C@@H](O)[C@H](O)[C@@H]7O)[C@@H](O)[C@H]6O[C@H]6O[C@@H](C)[C@@H](O)[C@H](O)[C@@H]6O)CCC[C@]5(C)C4CC[C@]3(C)C1[C@@H]2C (stereo not given in full)", "experimental-readout": "IC50", "u": "nM", "numeric-result": 501}
{"compound": "COc1cc(CN(C[C@H]2CC[C@H](C(=O)O)CC2)[C@H]2CCc3cc(Cl)ccc32)ccc1OCCN1C(=O)CCC1=O", "experimental-readout": "IC50", "u": "nM", "numeric-result": 12.6}

[in] Returns the measured IC50 for the input compound. Input: CCN(CC)C(=O)[C@@H]1C=C2C3C=CCc4[nH]cc(c43)C[C@H]2N(C(=O)Nc2ccccc2)C1 (stereo not given in full)
[out] 50.1

###

protocol-description: Half life in mouse at 10 mg/kg, po or 5 mg/kg, iv
Type: ADME, organism-based
condition: in vivo
experimental-readout: half-life

[in] Returns the measured half-life for the input compound. Input: "Cc1cccc2c1n(C)c(=N)n2CC(=O)c1ccc(Cl)cc1"
[out] 4.9 h

Reference source for all entries: ChEMBL document CHEMBL5257017
